method-summary: in vivo
study-conditions: male, SD, rat, po, 5 mg/kg, Tmax
Description: Compounds tested were as follows: kinetin (MW=215.21); MTK-115 (MW=243.26); MTK-115D (MW=219.29); MTK-125A (MW=217.27); and MTK-63A (MW=203.24). Formulation concentrations were 0.2 mg/mL for IV delivery; 0.5 mg/mL for PO delivery. […] Compounds were prepared in a formulation of 4% DMSO, 15% Solutol HS 15, 81% PBS and then administered to male SD rats via oral gavage at 5 mg/kg (n=3 per compound). […] Data were then plotted, and AUC values calculated.
measurement-name: Tmax (min)

c1coc(CNc2ncnc3[nH]cnc23)c1 [kinetin, reference compound] = 15

(1) C/C=C/CNc1nc(C)nc2[nH]cnc12 [MTK-63A]
(2) Cc1nc(NCc2ccco2)c2nc(C)[nH]c2n1
Between 1 and 2 , which one shows the smaller Tmax number? State your choice using its label.
1
(1: 15 min, 2: 240 min)

Where these numbers come from: patent US11414419B2
